Source listed as PubChem BioAssay (NCATS).

Test: qHTS of pediatric cancer cell lines to identify multiple opportunities for drug repurposing: Primary screen for U-2 OS cells (AID 1347096); further: nearly all actives have a fitted effect of over 50% in size
Settings: U-2 OS viability, CellTiter-Glo luminescence, 48 h; series mostly up to 46 µM
Inconclusive results are not listed. Active and inactive are the calls of the source. The call rests on the fitted dose curve; in most records, active means well fitted cell-killing curve with a large enough effect; inconclusive means small, poorly fitted or top-dose-only effect; inactive means flat fitted curve, though single readings scatter.
Outcome (select one): active, inactive

Solved cases below.
Structure: COC(=O)c1nc(Cl)c(Cl)nc1N
Class label: active

Structure: NC(=O)C(c1ccccc1)(c1ccccc1)[C@@H]1CCN(CCc2ccc3c(c2)CCO3)C1
Class label: inactive

Structure: O=C(CCN1CCN(CCO)CC1)N1c2ccccc2Sc2ccc(C(F)(F)F)cc21
Class label: inactive

Problem: Recorded call for Nc1ccc([N+](=O)[O-])cc1O ?
Result: inactive

Problem: Continue with C=CCCCCCCCCC(=O)O
Result: inactive

Problem: Continue with Nc1c(CC(=O)O)cccc1C(=O)c1ccc(Br)cc1
Result: inactive

Problem: Continue with CCCCCCOc1ccccc1C(N)=O
Result: inactive

====

Assay: qHTS for differential inhibitors of proliferation of Plasmodium falciparum line 7G8 (AID 1815);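 further: parasite growth measured after three days of incubation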; further: potency means the concentration at half of the fitted maximal effect
Conditions: Plasmodium falciparum 7G8 proliferation inhibition; series mostly up to 28.7 µM
Inconclusive results are not listed. The source made the active and inactive calls. Calls follow the shape of the dose curve; as a rule, active = well fitted curve in the direction sought with a large enough effect; inconclusive = small, poorly fitted or top-dose-only effect, or another doubt; inactive = no such curve, though single readings can be large or run the other way.
Measured endpoint: Potency

A selection of reference data follows.
Compound: Cn1cc(C2=C(c3ccc(Cl)cc3Cl)C(=O)NC2=O)c2ccccc21
Potency: 10 µM (active)

Compound: COc1cc2c(CCNC(C)=O)c[nH]c2cc1Cl
Potency: inactive

Compound: O=C(O)CNC(=O)C(CS)Cc1ccccc1 (centres undefined)
Potency: inactive

Compound: OC[C@H]1O[C@@H](n2cnc3c(NC4CCCCC4)ncnc32)[C@H](O)[C@@H]1O
Potency: inactive

Compound: CC(C)(C=O)Cc1cc(C(C)(C)C)c(O)c(C(C)(C)C)c1
Potency: inactive

Compound: CC(C)NCC(O)COc1cccc2ccccc12 (centres undefined)
Potency: 4.47 µM (active)

Compound: CN(C)C(N)=NCCC[C@H](N)C(=O)O
Potency: inactive

Compound: O=c1[nH]c2cc(C(F)(F)F)ccc2n1-c1cc(C(F)(F)F)ccc1O
Potency: 4.47 µM (active)

Compound: COc1cc(C(O)CO)ccc1OS(=O)(=O)O (centres undefined)
Potency: inactive

Compound: CN1CCC[C@H]1c1cccnc1
Potency: inactive

Problem: Reported Potency, compound COc1cccc(OC)c1OCCNCC1COc2ccccc2O1 (centres undefined) : ____
Result: 7.94 µM (active)

Problem: Continue with O=C(O)[C@@H]1C[C@H](C(=O)O)N1
Result: inactive

Problem: Continue with COC1=C(OC)C(=O)c2ccccc2C1=O
Result: 8.91 µM (active)

Problem: Continue with CC1(C)CCC=[N+]1[O-]
Result: inactive

====

System: OV90
Assay: Primary qHTS to identify gynecologic anti-cancer compounds using libraries of approved drugs and bioactive compounds (AID 1345084); further: nearly all actives have a fitted effect of over 55% in size; further: potency means the concentration at half of the fitted maximal effect
Details: Gynecologic cancer cell panel viability, ATPlite luminescence, 48 h; series mostly up to 57.5 µM
Records with an inconclusive call do not appear. Calls of active or inactive are those of the source. The call rests on the fitted dose curve; in most records, active means well fitted cell-killing curve with a large enough effect; inconclusive means small, poorly fitted or top-dose-only effect, or effect the other way; inactive means flat fitted curve, though single readings scatter.
Measured endpoint: Potency

Compound: CCNC(=O)[C@H]1O[C@@H](n2cnc3c(N)nc(NCCc4ccc(CCC(=O)O)cc4)nc32)[C@H](O)[C@@H]1O
Measurement: inactive
//
Compound: O=C(Nc1ccc2c(c1)CCN(Cc1ncn[nH]1)C2)c1ccccc1-c1ccc(C(F)(F)F)cc1
Measurement: inactive
//
Compound: Cc1ccc(O)c(-n2nc3ccccc3n2)c1
Measurement: 3.55 µM (active)
//
Compound: CCCCCCCC/C=C/C(=O)O
Measurement: inactive
//
Compound: COc1ccnc2c1CCCCC2S(=O)c1nc2ccccc2[nH]1 (configuration not stated)
Measurement: inactive

Problem: Potency of COC(=O)C1=C(C)NC(C)=C(C(=O)OCC(C)=O)C1c1ccccc1[N+](=O)[O-] (configuration not stated) on OV90?
Result: inactive

Problem: Continue with CCNc1nc2c(ncn2[C@H]2C[C@H](O)[C@@H](CO)O2)c(=O)[nH]1
Result: inactive

Problem: Continue with CCCCCCCCCCCCCCCC(=O)OC(C)C
Result: inactive

Problem: Continue with Cc1ccc2c(n1)Oc1ccc(C(C)C(=O)OCC(=O)N(C)C)cc1C2 (configuration not stated)
Result: inactive

Problem: Continue with O=C(O)c1cc(O)c(O)c(O)c1
Result: inactive

Problem: Continue with NCCO
Result: inactive

Problem: Continue with CCCCN(CC)c1nc(C)nc2c1c(C)cn2-c1c(C)cc(C)cc1C
Result: inactive

Problem: Continue with O=C(Nc1ccc2[nH]ncc2c1)C1CCC1
Result: inactive
